Source listed as the supplement of paper PMC10065799.

# target or system: FGFR1 (UniProt P11362)
# Sequence (P11362 whole entry, looked up): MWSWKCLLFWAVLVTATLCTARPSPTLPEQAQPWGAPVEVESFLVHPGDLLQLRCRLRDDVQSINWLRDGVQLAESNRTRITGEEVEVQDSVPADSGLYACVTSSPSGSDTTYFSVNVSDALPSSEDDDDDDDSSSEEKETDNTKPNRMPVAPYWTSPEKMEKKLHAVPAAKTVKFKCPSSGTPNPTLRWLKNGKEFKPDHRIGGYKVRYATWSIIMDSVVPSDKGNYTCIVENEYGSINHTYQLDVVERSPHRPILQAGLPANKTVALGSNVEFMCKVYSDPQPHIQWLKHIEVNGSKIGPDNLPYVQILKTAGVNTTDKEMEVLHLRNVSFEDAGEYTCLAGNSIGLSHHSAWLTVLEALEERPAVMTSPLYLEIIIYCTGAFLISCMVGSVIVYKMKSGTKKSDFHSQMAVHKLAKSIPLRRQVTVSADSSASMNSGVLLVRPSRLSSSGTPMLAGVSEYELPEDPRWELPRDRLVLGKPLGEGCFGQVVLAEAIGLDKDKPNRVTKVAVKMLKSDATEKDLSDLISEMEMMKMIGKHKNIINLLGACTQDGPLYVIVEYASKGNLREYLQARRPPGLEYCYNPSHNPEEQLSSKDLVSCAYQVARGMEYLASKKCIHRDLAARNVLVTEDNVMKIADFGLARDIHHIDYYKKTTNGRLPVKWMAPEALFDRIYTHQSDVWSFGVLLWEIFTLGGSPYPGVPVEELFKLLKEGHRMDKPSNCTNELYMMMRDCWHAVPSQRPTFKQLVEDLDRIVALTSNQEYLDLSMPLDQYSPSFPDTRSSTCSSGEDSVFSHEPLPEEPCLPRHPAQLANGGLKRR
# assay explanation: phosphorylation enrichment, bacterial display (enrichment ratio); higher = better substrate or ligand; peptides without Tyr show the background;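 further: 11-residue human phosphosite peptides and single-mutation variants displayed on the E. coli surface, counted by deep sequencing, each peptide's frequency after selection divided by its frequency in the unselected input library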;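 further: frequency after pTyr selection over input frequency; kinase dosed for 20-30% of maximal phosphorylation in three min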
parameter: phosphorylation enrichment

>>> result("EDKSIYRRGAC [PRKCI_Y125_R130C]")
0.42
>>> result("LEFAKYGSLRG [RET_Y809_V804L_YF]")
0.316
>>> result("PLKYLYPNIDK [STAT1_Y668]")
0.41
>>> result("HHTDECEYDEL [TGM1_Y134_Y134C]")
0.504
>>> result("FIATQYSLRPR [LBR_Y166_YF]")
0.532
>>> result("HQNGMYRLHQD [SGSH_Y89_G90R]")
0.521

Give a short answer stating reported phosphorylation enrichment for PAIFTYDEFKK [COL8A2_Y648_T645I_YF] .
0.374

Give a short answer stating reported phosphorylation enrichment for QGGRCYMMIVD [GAA_Y438_R437C] .
0.815

Give a short answer stating reported phosphorylation enrichment for EPSLDYMVTKI [CPS1_Y768] .
0.814

====

# target or system: FGFR1 (UniProt P11362)
# assay explanation: phosphorylation enrichment, bacterial display (enrichment ratio); higher = better substrate or ligand; peptides without Tyr show the background
Please mark True if the recorded phosphorylation enrichment is equal to or greater than 0.5, and False if it falls below.

>>> label_value("GVLKEYGVKVL [CPS1_Y529]")
"False"
>>> label_value("HAVYVYDICHV [TWNK_Y508]")
"True"
>>> label_value("DPLASYLDKVR [KRT10_Y160_R156P]")
"False"
>>> label_value("QMQNPYSRHSS [MUC13_Y501]")
"True"
>>> label_value("KLSCSYSHLSA [C4BPA_Y470_W473L]")
"True"
>>> label_value("SLALFYRKVYH [RBL1_Y792]")
"True"
>>> label_value("FRKNTYNVKST [SYNE2_Y575_I574T_YF]")
"False"
>>> label_value("ACDALYPPGPP")
"False"
>>> label_value("YHRQLYHKCTH [F12_Y58]")
"False"
>>> label_value("SKKSTYQALLD [GANC_Y43]")
"False"

Tell me whether phosphorylation enrichment is at least 0.5 here: ARVDTYCRHNY [HLA-DRB1_Y107_A103R]
True

Tell me whether phosphorylation enrichment is at least 0.5 here: VFSSDYFSFVL [USP24_Y2138_YF]
True

Tell me whether phosphorylation enrichment is at least 0.5 here: SKNSKCNAEST [PSEN1_Y315_Y315C]
True

====

# target or system: Fes (UniProt P07332)
# Sequence (P07332 whole entry, looked up): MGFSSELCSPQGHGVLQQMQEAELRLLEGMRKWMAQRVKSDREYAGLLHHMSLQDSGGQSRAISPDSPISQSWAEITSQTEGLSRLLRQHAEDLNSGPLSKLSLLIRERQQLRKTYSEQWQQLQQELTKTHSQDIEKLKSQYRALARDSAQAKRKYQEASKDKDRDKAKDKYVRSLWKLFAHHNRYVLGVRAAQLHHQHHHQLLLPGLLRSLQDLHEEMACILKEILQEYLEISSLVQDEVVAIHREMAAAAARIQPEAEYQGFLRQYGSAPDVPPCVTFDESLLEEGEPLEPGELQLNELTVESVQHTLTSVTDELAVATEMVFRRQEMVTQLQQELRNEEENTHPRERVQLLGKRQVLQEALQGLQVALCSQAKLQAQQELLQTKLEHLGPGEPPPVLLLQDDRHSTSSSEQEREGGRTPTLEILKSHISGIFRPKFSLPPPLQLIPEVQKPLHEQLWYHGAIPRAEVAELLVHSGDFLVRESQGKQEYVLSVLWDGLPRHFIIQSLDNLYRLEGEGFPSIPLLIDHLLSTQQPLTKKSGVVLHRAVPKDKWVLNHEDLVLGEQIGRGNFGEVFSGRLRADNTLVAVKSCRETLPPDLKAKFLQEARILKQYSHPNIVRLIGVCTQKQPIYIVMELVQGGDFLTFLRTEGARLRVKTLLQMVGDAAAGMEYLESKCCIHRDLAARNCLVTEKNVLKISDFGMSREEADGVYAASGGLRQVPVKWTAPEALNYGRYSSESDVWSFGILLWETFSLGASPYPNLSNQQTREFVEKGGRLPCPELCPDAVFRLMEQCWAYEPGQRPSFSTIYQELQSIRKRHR
# assay explanation: phosphorylation enrichment, bacterial display (enrichment ratio); higher = better substrate or ligand; peptides without Tyr show the background
Listing: phosphorylation enrichment of selected sequences
Output spec: single numeric token, no unit.

Solved cases below.
>>> result("CTTIHFNFMCN [TP53_Y234_Y234F_YF]")
1.31
>>> result("GLVFLYVEKNQ [PRELP_Y156_M157V]")
1.29
>>> result("KQELVYTNKKL [OPTN_Y356]")
0.675

Give a short answer stating reported phosphorylation enrichment for PVPKTYDMLNA [PKP2_Y108_K112N] .
1.11

Give a short answer stating reported phosphorylation enrichment for HVKHNYECLVF [XRCC5_Y416_I412V_YF] .
1.17

Give a short answer stating reported phosphorylation enrichment for GDPTEYFSTAI [IGSF22_Y501_YF] .
1.08
